- experimental target: IL-17A/A (Homo sapiens)
- Construct: purchased Genscript Z03228
- Sequence (Q16552 24-155): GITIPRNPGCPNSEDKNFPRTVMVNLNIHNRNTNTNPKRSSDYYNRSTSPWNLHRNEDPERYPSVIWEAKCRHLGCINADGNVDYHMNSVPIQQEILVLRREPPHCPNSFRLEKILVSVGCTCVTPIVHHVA
- protocol notes: IL-17A/A HEK-Blue Cell Assay
- Format: cell-based
- measurement conditions: HEK-Blue IL-17A reporter cell line, SEAP readout at A630, 20 hours incubation with IL-17A/A; top concentration 10 uM, 1 uM or 0.3 uM; read-out: IL-17A/A inhibition (pIC50) (converted)
- Procedure: The HEK-Blue IL-17A reporter cell line (Fisher #NC1408637) was used for cell-based IL-17A/A inhibition assays. Cells were grown and prepared for assays according to the manufacturer's instructions. […] Media from the cells is then added to a development reagent (Quanti-Blue Substrate, Fisher #NC9711613), and read at A630. […]
measure name: IC50

Please review the entries below; each comes with its answer.
CCc1nonc1C(=O)N[C@H](C(=O)Nc1ccc([C@H](C)C(NC(=O)C(C)F)C(=O)N2CCN(C)[C@@H](C)C2)cc1F)[C@H]1CC[C@H](C)CC1 (single isomer, unassigned) [Compound 594]    < 10 nM
CCC(=O)N[C@@H](C(=O)N1CCN(C(C)(C)C)CC1)[C@@H](C)c1ccc(NC(=O)[C@@H](NC(=O)c2ccnn2CC)[C@H]2CC[C@H](C)CC2)c(F)c1    < 10 nM
CCC(=O)N[C@H](Cc1ccc(NC(=O)[C@@H](NC(=O)c2ccnn2CC)C2CCCCC2)c(Cl)c1)C(=O)N1CCN(C)CC1    100 to 10000 nM
CCC(=O)N[C@@H](C(=O)N1C[C@@H](C)N[C@@H](C)C1)[C@@H](C)c1ccc(NC(=O)[C@@H](NC(=O)c2nonc2CC)[C@H]2CC[C@H](C)CC2)c(F)c1    10 to 100 nM
CCc1nonc1C(=O)N[C@H](C(=O)Nc1ccc([C@H](C)[C@@H](NC(=O)[C@H](C)F)C(=O)N2CCN(C)CC2)cc1F)[C@H]1CC[C@H](C)CC1    10 to 100 nM

Enquiry: Fill in the blank: the reported IC50 of `CCC(=O)N[C@@H](C(=O)N1CCN(C)CC1)[C@@H](C)c1ccc(NC(=O)[C@@H](NC(=O)C(F)(F)c2cnn(CC)c2)[C@H]2CC[C@H](C)CC2)c(F)c1` is ____.
Return: < 10 nM

Enquiry: Given `CCC(=O)N[C@@H](C(=O)N1CCN(C)CC1)[C@@H](C)c1ccc(NC(=O)[C@@H](NC(=O)c2nnnn2CC)[C@H]2CC[C@H](C)CC2)c(F)c1` , state its recorded IC50.
Return: 10 to 100 nM

Enquiry: Which IC50 is listed for `CCC(=O)N[C@@H](C(=O)N1CCN(C)CC1)[C@@H](CC)c1ccc(NC(=O)[C@@H](NC(=O)c2ccnn2CC)C2CCCCCC2)cc1` ?
Return: 10 to 100 nM

Enquiry: Item `CCn1cc(C(F)(F)C(=O)N[C@H](C(=O)Nc2ccc([C@H](C)[C@@H](NC(=O)c3cnns3)C(=O)N3CCN(C)CC3)cc2F)[C@H]2CC[C@H](C)CC2)cn1` has what recorded IC50?
Return: < 10 nM

Enquiry: Could you share which IC50 value was measured for CCC(=O)N[C@@H](C(=O)N1CCN(C)CC1)[C@@H](C)c1ccc(NC(=O)C(NC(=O)c2ccnn2C(C)C)[C@@H](C)c2ccccc2)c(F)c1 (some centres unmarked) ?
Return: 10 to 100 nM

Enquiry: Record request: IC50 value, item `CCC(=O)N[C@@H](C(=O)N1CC(F)(F)C1)[C@@H](C)c1ccc(NC(=O)[C@@H](NC(=O)c2ccnn2CC)C2CCCCC2)c(F)c1`
Return: 100 to 10000 nM
